B1: library; numbered along this chain (parent)
chain: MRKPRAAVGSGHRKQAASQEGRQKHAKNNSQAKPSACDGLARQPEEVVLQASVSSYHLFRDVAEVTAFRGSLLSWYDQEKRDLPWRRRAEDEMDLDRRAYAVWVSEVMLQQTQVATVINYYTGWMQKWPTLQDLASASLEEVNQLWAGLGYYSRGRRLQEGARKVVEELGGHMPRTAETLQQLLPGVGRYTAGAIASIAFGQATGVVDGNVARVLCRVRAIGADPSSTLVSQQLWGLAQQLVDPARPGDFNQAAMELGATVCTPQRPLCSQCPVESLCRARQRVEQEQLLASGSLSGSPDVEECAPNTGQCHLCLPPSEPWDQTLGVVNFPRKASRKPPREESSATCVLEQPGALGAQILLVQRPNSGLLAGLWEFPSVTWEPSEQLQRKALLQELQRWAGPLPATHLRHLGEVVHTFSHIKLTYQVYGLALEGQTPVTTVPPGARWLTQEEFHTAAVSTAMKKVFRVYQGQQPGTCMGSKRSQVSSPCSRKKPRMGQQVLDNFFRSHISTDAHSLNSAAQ

# Variants of: B1
# test-protocol: 8OG:A repair function score (normalized; synonymous = 0, nonsense = -1) (normalized log-likelihood score); higher = more repair activity (WT-like);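 also: cells sorted at 72 h after reporter transfection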
# conditions: with 8OG:A DNA repair reporter (GFP) in HEK-293 MUTYH KO cells
assay-endpoint: 8OG:A repair function score
Give bare numbers.

Observe how each entry below is paired with its result.
mutation_label=G434M assay_endpoint="8OG:A repair function score" number=0.0898
mutation_label=S510A assay_endpoint="8OG:A repair function score" number=-0.00841
mutation_label=V218C assay_endpoint="8OG:A repair function score" number=-0.211

// input: 7 variants below; output: 8OG:A repair function score for each
1. G193D
2. R213W
3. A357D
4. W235F
5. E395Q
6. S487L
7. S490V

Return:
1: -0.37; 2: -1; 3: -0.193; 4: -0.292; 5: -0.276; 6: -5.82e-05; 7: -0.0138

// input: 8 variants below; output: 8OG:A repair function score for each
1. Q43T
2. T204Y
3. G171N
4. L109M
5. P44W
6. L134P
7. L392G
8. F330Y

Return:
[0.0245, -0.127, -0.204, -0.105, -0.102, -1.26, -0.896, -0.0696]

// input: 4 variants below; output: 8OG:A repair function score for each
1. H172M
2. A400L
3. L241C
4. S367T

Return:
1. 0.0264
2. -0.241
3. -0.37
4. 0.119
